Recorded values, source patent US20240209076A1.

target: recombinant human IL-6 (human, UniProt P05231 30-212); assay: SPR, IL-6 on CM5 chip, Fab lysate, 25 C
Sequence (P05231 30-212 limits assumed): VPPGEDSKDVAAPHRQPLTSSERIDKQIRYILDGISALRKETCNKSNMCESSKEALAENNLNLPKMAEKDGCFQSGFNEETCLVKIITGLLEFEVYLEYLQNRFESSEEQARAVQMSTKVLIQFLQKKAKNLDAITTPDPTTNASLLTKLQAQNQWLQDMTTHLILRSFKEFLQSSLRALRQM
value-kind: koff (s⁻¹)
Report the value in s⁻¹ with no unit label.

Task item: Item anti-IL-6 Fab, heavy chain T58K (Fab, V domains shown, see m39) VH: EVQLVESGGGLVQPGGSLRLSCAASGFTFSPFAMSWVRQAPGKGLEWVAKISPGGSWKYYSDTVTGRFTFSLDTSKSTAYLQMNSLRAEDTAVYYCARQLWGYYALDIWGQGTLVTVSS VL: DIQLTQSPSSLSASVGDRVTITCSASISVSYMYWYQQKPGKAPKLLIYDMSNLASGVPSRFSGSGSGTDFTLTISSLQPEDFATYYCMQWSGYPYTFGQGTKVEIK has what recorded koff?
Reply: 0.00492

Task item: What value of koff has been reported for the following binder? anti-IL-6 Fab, heavy chain Q99H (Fab, V domains shown) VH: EVQLVESGGGLVQPGGSLRLSCAASGFTFSPFAMSWVRQAPGKGLEWVAKISPGGSWTYYSDTVTGRFTFSLDTSKSTAYLQMNSLRAEDTAVYYCARHLWGYYALDIWGQGTLVTVSS VL: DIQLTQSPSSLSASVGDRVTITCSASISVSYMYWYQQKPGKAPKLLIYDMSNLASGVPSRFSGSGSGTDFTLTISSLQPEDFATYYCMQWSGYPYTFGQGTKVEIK
Reply: 0.00441

Task item: GET /values?readout=koff&item= anti-IL-6 Fab, heavy chain S61A (Fab, V domains shown, see m39) VH: EVQLVESGGGLVQPGGSLRLSCAASGFTFSPFAMSWVRQAPGKGLEWVAKISPGGSWTYYADTVTGRFTFSLDTSKSTAYLQMNSLRAEDTAVYYCARQLWGYYALDIWGQGTLVTVSS VL: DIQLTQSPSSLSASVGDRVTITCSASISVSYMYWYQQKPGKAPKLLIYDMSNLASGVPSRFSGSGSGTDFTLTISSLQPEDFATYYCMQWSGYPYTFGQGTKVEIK
Reply: 0.00604

Task item: // query koff value for entry anti-IL-6 Fab, heavy chain T63D (Fab, V domains shown, see m39) VH: EVQLVESGGGLVQPGGSLRLSCAASGFTFSPFAMSWVRQAPGKGLEWVAKISPGGSWTYYSDDVTGRFTFSLDTSKSTAYLQMNSLRAEDTAVYYCARQLWGYYALDIWGQGTLVTVSS VL: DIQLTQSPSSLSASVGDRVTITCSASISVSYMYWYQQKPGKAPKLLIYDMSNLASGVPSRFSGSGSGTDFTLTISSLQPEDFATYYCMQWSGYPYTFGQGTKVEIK
Reply: 0.00603

Task item: What value of koff has been reported for the following binder? anti-IL-6 Fab, light chain S26H (Fab, V domains shown, see m39) VH: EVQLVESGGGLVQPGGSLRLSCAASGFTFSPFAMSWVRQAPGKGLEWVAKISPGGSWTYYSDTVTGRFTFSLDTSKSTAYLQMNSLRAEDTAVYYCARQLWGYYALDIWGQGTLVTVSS VL: DIQLTQSPSSLSASVGDRVTITCSAHISVSYMYWYQQKPGKAPKLLIYDMSNLASGVPSRFSGSGSGTDFTLTISSLQPEDFATYYCMQWSGYPYTFGQGTKVEIK
Reply: 0.00427

Task item: What does the data say about its koff? Entry: anti-IL-6 Fab, heavy chain S61K (Fab, V domains shown, see m39) VH: EVQLVESGGGLVQPGGSLRLSCAASGFTFSPFAMSWVRQAPGKGLEWVAKISPGGSWTYYKDTVTGRFTFSLDTSKSTAYLQMNSLRAEDTAVYYCARQLWGYYALDIWGQGTLVTVSS VL: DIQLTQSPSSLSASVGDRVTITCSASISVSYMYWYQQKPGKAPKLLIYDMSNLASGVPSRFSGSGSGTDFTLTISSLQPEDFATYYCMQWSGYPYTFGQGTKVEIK
Reply: 0.00558

Task item: // query koff value for entry anti-IL-6 Fab, heavy chain G26S (Fab, V domains shown, see m39) VH: EVQLVESGGGLVQPGGSLRLSCAASSFTFSPFAMSWVRQAPGKGLEWVAKISPGGSWTYYSDTVTGRFTFSLDTSKSTAYLQMNSLRAEDTAVYYCARQLWGYYALDIWGQGTLVTVSS VL: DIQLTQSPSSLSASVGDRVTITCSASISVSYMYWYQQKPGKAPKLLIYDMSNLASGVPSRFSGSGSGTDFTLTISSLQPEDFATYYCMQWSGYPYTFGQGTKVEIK
Reply: 0.00375

Task item: # lookup: koff of anti-IL-6 Fab, light chain S55Y (Fab, V domains shown, see m39) VH: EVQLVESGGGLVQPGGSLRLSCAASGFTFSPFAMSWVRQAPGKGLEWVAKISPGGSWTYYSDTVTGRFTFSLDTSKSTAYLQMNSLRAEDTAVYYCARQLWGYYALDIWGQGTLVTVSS VL: DIQLTQSPSSLSASVGDRVTITCSASISVSYMYWYQQKPGKAPKLLIYDMSNLAYGVPSRFSGSGSGTDFTLTISSLQPEDFATYYCMQWSGYPYTFGQGTKVEIK
Reply: 0.00508

Task item: Any idea what its koff is? The binder is anti-IL-6 Fab, light chain Y95I (Fab, V domains shown, see m39) VH: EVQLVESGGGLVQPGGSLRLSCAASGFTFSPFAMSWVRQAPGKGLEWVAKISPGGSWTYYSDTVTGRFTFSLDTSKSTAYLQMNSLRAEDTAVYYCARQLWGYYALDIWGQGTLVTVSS VL: DIQLTQSPSSLSASVGDRVTITCSASISVSYMYWYQQKPGKAPKLLIYDMSNLASGVPSRFSGSGSGTDFTLTISSLQPEDFATYYCMQWSGYPITFGQGTKVEIK
Reply: 0.00608

Task item: Query (binder): anti-IL-6 Fab, heavy chain F29Y (Fab, V domains shown, see m39) VH: EVQLVESGGGLVQPGGSLRLSCAASGFTYSPFAMSWVRQAPGKGLEWVAKISPGGSWTYYSDTVTGRFTFSLDTSKSTAYLQMNSLRAEDTAVYYCARQLWGYYALDIWGQGTLVTVSS VL: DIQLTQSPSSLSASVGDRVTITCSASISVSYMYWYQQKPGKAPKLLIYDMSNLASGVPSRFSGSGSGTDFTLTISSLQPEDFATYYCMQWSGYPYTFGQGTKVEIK ; field requested: koff
Reply: 0.00511

Task item: Give the measured koff of anti-IL-6 Fab, heavy chain A105Q (Fab, V domains shown) VH: EVQLVESGGGLVQPGGSLRLSCAASGFTFSPFAMSWVRQAPGKGLEWVAKISPGGSWTYYSDTVTGRFTFSLDTSKSTAYLQMNSLRAEDTAVYYCARQLWGYYQLDIWGQGTLVTVSS VL: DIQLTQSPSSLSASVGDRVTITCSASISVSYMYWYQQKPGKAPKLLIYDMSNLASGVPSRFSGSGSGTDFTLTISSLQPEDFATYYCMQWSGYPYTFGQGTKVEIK .
Reply: 0.00401
